- ASSAY: Comparative pharmacokinetic study, single-dose administration in mice
- Type: in vivo
- SETUP_CONDITIONS: male, CD1, mouse, plasma, oral, 80 mg/kg, single dose
READOUT_KIND: CL/F at 24 h (mL/min/kg)

| COMPOUND | CL/F at 24 h [mL/min/kg] |
| --- | --- |
| [2H]C1([2H])OC([2H])(C([2H])([2H])n2cnc3c2c(=O)n(C)c(=O)n3C)OC1([2H])[2H] | 40 |

[a] [2H]C1([2H])OC(Cn2cnc3c2c(=O)n(C)c(=O)n3C)OC1([2H])[2H]
[b] Cn1c(=O)c2c(ncn2CC2OCCO2)n(C)c1=O
Field: lower CL/F at 24 h | Options: a / b Reply with the label of the item you choose.
b
(b: 23.3 mL/min/kg, a: 41.7 mL/min/kg)
